Origin of the recorded values: patent US7632918B2

Test system: 3797 S. aureus (GISA)
Test: MIC, broth microdilution in Meuller-Hinton broth (NCCLS)
Format: cell-based, Staphylococus aureus
Settings: glycopeptides-intermediate clinical isolate
recorded.endpoint: MIC 3797 S. aureus (GISA) (µg/mL)
One number for each entry, in µg/mL.

CNC(CC(C)C)C(=O)NC1C(=O)NC(CC(N)=O)C(=O)NC2C(=O)NC3C(=O)NC(C(=O)NC(C(=O)O)c4cc(O)cc(O)c4-c4cc3ccc4O)C(OC3CC(C)(N)C(O)C(C)O3)c3ccc(cc3)Oc3cc2cc(c3OC2OC(CO)C(O)C(O)C2OC2CC(C)(NC(=O)CNCc3ccc(OCc4ccccc4)cc3)C(O)C(C)O2)Oc2ccc(cc2Cl)C1O (centres unmarked) ... 8

Next molecule, MIC 3797 S. aureus (GISA) to be filled in.
Q: Could you please provide reported MIC 3797 S. aureus (GISA) for CCCCc1ccc(CN[C@@H](CCCN)C(=O)NC2(C)CC(OC3C(Oc4c5cc6cc4Oc4ccc(cc4Cl)C(O)C(NC(=O)C(CC(C)C)NC)C(=O)NC(CC(N)=O)C(=O)NC6C(=O)NC4C(=O)NC(C(=O)NC(C(=O)O)c6cc(O)cc(O)c6-c6cc4ccc6O)C(OC4CC(C)(N)C(O)C(C)O4)c4ccc(cc4)O5)OC(CO)C(O)C3O)OC(C)C2O)cc1 (some centres unmarked) ? Thanks!
A: 4

---

Assignment: determine reported MIC 559 E. faecalis (GSE) for the given compounds.
Test system: 559 E. faecalis (GSE)
Assay: MIC, broth microdilution in Meuller-Hinton broth (NCCLS)
Assay type: cell-based, Enterococcus faecalis
Details: glycopeptide-sensitive clinical isolate
One number for each entry, in µg/mL.

Check out these entries, answers already filled in.
CNC(CC(C)C)C(=O)NC1C(=O)NC(CC(N)=O)C(=O)NC2C(=O)NC3C(=O)NC(C(=O)NC(C(=O)O)c4cc(O)cc(O)c4-c4cc3ccc4O)C(OC3CC(C)(N)C(O)C(C)O3)c3ccc(cc3)Oc3cc2cc(c3OC2OC(CO)C(O)C(O)C2OC2CC(C)(NC(=O)CNC(=O)OC34CC5CC(CC(C5)C3)C4)C(O)C(C)O2)Oc2ccc(cc2Cl)C1O (stereo not drawn) ... 2
CNC(CC(C)C)C(=O)NC1C(=O)NC(CC(N)=O)C(=O)NC2C(=O)NC3C(=O)NC(C(=O)NC(C(=O)O)c4cc(O)cc(O)c4-c4cc3ccc4O)C(O)c3ccc(c(Cl)c3)Oc3cc2cc(c3OC2OC(CO)C(O)C(O)C2OC2CC(C)(NC(=O)CNCc3ccc(C(F)(F)F)cc3)C(O)C(C)O2)Oc2ccc(cc2Cl)C1O (stereo not drawn) ... 2

Next compound, MIC 559 E. faecalis (GSE) to be filled in.
Q: Could you please provide reported MIC 559 E. faecalis (GSE) for CCCCCCCCCC(=O)NCC(=O)NC1(C)CC(OC2C(Oc3c4cc5cc3Oc3ccc(cc3Cl)C(O)C(NC(=O)C(CC(C)C)NC)C(=O)NC(CC(N)=O)C(=O)NC5C(=O)NC3C(=O)NC(C(=O)NC(C(=O)O)c5cc(O)cc(O)c5-c5cc3ccc5O)C(OC3CC(C)(N)C(O)C(C)O3)c3ccc(cc3)O4)OC(CO)C(O)C2O)OC(C)C1O (stereo not drawn) ? Thanks!
A: 2

---

Tested on: 559 E. faecalis (GSE)
Assay: MIC, broth microdilution in Meuller-Hinton broth (NCCLS)
Type: cell-based, Enterococcus faecalis
Conditions: glycopeptide-sensitive clinical isolate
recorded.endpoint: MIC 559 E. faecalis (GSE) (µg/mL)
Give bare numbers, in µg/mL.

CNC(CC(C)C)C(=O)NC1C(=O)NC(CC(N)=O)C(=O)NC2C(=O)NC3C(=O)NC(C(=O)NC(C(=O)O)c4cc(O)cc(O)c4-c4cc3ccc4O)C(O)c3ccc(c(Cl)c3)Oc3cc2cc(c3OC2OC(CO)C(O)C(O)C2OC2CC(C)(NC(=O)CNCc3ccc(F)cc3)C(O)C(C)O2)Oc2ccc(cc2Cl)C1O (stereo not drawn) ... 1

For each of the molecules below, note its MIC 559 E. faecalis (GSE).
1. CCCCc1ccc(CNCC(=O)NC2(C)CC(OC3C(Oc4c5cc6cc4Oc4ccc(cc4Cl)C(O)C(NC(=O)C(CC(C)C)NC)C(=O)NC(CC(N)=O)C(=O)NC6C(=O)NC4C(=O)NC(C(=O)NC(C(=O)NC(C)C67CC8CC(CC(C8)C6)C7)c6cc(O)cc(O)c6-c6cc4ccc6O)C(OC4CC(C)(N)C(O)C(C)O4)c4ccc(cc4)O5)OC(CO)C(O)C3O)OC(C)C2O)cc1 (stereo not drawn)
2. CNC(CC(C)C)C(=O)NC1C(=O)NC(CC(N)=O)C(=O)NC2C(=O)NC3C(=O)NC(C(=O)NC(C(=O)O)c4cc(O)cc(O)c4-c4cc3ccc4O)C(OC3CC(C)(N)C(O)C(C)O3)c3ccc(cc3)Oc3cc2cc(c3OC2OC(CO)C(O)C(O)C2OC2CC(C)(NC(=O)CNCc3ccc(-c4ccc(Cl)cc4)cc3)C(O)C(C)O2)Oc2ccc(cc2Cl)C1O (stereo not drawn)

A:
1. 4
2. 1
